Provide the reported hERG current change (%, negative = inhibition) at 10uM of each item.
- MEASURED_ON: human ether-à-go-go-related gene (hERG) potassium channel (human, UniProt Q12809)
- Sequence (Q12809 whole entry, looked up): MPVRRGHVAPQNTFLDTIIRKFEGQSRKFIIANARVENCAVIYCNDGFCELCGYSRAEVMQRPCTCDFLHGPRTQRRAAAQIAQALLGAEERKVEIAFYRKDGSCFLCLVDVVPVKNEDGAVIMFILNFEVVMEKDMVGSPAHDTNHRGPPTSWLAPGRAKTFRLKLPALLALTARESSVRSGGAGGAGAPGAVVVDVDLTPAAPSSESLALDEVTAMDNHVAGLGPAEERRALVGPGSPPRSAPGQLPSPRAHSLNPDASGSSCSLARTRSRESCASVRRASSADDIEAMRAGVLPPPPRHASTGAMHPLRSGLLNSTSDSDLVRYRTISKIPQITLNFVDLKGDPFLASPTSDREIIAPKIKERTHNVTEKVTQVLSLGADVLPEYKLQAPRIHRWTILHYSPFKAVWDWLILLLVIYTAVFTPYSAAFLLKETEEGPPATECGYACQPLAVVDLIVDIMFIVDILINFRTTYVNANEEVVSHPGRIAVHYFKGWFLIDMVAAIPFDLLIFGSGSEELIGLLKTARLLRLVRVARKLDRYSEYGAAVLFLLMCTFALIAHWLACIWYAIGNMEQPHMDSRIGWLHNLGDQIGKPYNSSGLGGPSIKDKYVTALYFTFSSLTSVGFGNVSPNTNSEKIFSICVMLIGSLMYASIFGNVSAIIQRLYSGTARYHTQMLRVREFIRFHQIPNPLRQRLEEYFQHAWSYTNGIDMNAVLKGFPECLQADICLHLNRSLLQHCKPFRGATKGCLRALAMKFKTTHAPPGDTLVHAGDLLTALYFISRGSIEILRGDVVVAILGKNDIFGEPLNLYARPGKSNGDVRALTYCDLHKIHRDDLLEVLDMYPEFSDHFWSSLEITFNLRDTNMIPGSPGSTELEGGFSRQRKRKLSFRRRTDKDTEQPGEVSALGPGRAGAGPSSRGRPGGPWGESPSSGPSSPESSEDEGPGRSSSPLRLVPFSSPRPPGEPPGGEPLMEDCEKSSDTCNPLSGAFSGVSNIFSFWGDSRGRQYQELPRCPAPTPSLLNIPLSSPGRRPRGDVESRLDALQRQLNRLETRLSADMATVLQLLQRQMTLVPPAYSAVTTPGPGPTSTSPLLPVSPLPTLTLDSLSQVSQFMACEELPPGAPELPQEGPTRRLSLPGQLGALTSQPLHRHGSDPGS
- METHOD_DESCRIPTION: primary screen, population patch clamp on CHO cells stably expressing hERG; higher = less effect of the substance;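 note: peak tail current of the secondary pulse compared with the same well before compound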
- Experimental: Briefly, Chinese hamster ovary (CHO) cells stably expressing the hERG channel were dislodged from tissue culture flasks and dispensed into PPC plates. […] During the recording, background leak currents were estimated by a 100 ms step to -80 mV from an initial holding potential of -70 mV and subtracted from the subsequent current measurement. The campaign was conducted in two phases using slight differences in recording protocol. […]
The whole screen tested about 310,000 compounds, of which about 14,000 (4.5%) showed an effect of 50% or more. Effects have a minus sign here. The sample holds strong results, similar compounds and a random draw of the others, so the mix is not that of the screen.
Kindly provide the numeric value in % only, without the unit symbol.

// hERG current change (%, negative = inhibition) at 10uM value for COc1cccc(NC(=O)CCNS(=O)(=O)c2cccc3nsnc23)c1 : 1.56

Sample CC(NCc1ccc(S(N)(=O)=O)cc1)C(=O)Nc1cc([N+](=O)[O-])ccc1Cl (centres unmarked) ; hERG current change (%, negative = inhibition) at 10uM observed: -45.8

Record Cc1ccc(C(=O)NNC(=O)CSc2nnc(-c3ccncc3)n2-c2ccc(C)cc2)cc1 . Reported hERG current change (%, negative = inhibition) at 10uM: -51.4

Item: Cc1ccc(OCC(=O)NNC(=O)CCc2ccccc2)c(Br)c1 | hERG current change (%, negative = inhibition) at 10uM: 10

Reported hERG current change (%, negative = inhibition) at 10uM ( CC(C)n1cnnc1SCC(=O)Nc1cccc(S(=O)(=O)N(C)c2ccccc2)c1 ) = -12.4

Per the records, this molecule ( COc1ccc(-n2c(SCC(=O)NNC(=O)c3ccc(C)cc3)nnc2-c2ccncc2)cc1 ) has hERG current change (%, negative = inhibition) at 10uM equal to -58.6

hERG current change (%, negative = inhibition) at 10uM reported for this molecule Cc1ccc(S(=O)(=O)NC2CCCC2)cc1C : -9.68

hERG current change (%, negative = inhibition) at 10uM recorded for this molecule, CCn1c(SCC(=O)NNC(=O)c2ccc(C)cc2)nnc1-c1ccncc1 , is -0.879

Values from paper PMC4336329
